Reference source: the supplement of paper PMC12042874

# EXPERIMENT NOTES: amyloid nucleation score (Sup35N fusion, yeast selection) (log enrichment); library NNK3; higher = more nucleation; inactive = no reads after selection;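 note: zero at mode of non-aggregating sequences after 7 days selection at 30°C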
REPORTED METRIC: amyloid nucleation score

Reference set, count: 6
[[record]]
substance = "LLFMYSDMTYTWCIFYGELW"
reported_metric = "amyloid nucleation score"
recorded_measurement = "inactive"

[[record]]
substance = "CIYCTSSL"
reported_metric = "amyloid nucleation score"
recorded_measurement = 0.519

[[record]]
substance = "CWAPHPKDRKPVRGNYSVHN"
reported_metric = "amyloid nucleation score"
recorded_measurement = "inactive"

[[record]]
substance = "ILSKVNSKSDKRSF"
reported_metric = "amyloid nucleation score"
recorded_measurement = "inactive"

[[record]]
substance = "VNCQCSSEWCHKNSVYFIRY"
reported_metric = "amyloid nucleation score"
recorded_measurement = 2.59

[[record]]
substance = "YMLWDDMVEKYHCLSQRLGR"
reported_metric = "amyloid nucleation score"
recorded_measurement = "inactive"


Any idea what its amyloid nucleation score is? The substance is CMVFMYQILVPAWALRSYIL
inactive

How about FIILQFVGFLHNTGFWYQLG ?
0.217

// query: RLHLAPTNCREVNWPTLWLA
-0.565

Field entry: AQGKSRPYPLSNSPSGVRRS
inactive

Now consider LTSCTATLCICCSRVVTVEI .
1.24

Field entry: CEQQSRYHMKFMPASLLSFK
inactive

// same read-out, input: NTEITQLSIVLFCILYQYSV
1.46

Would you kindly repeat that for KGVDQGISECFLAVWFGRMN ?
inactive

Next substance: CTFFGKLLSCFVYSGMVQ
inactive

Also DSFILLDTSTHTNTTAYGKC ?
inactive

Also, LYNYAVSISTLIH please.
0.971

SCRWMTMCAINSP , same question.
0.726

Another substance to check: IFSLLPVDILVTLY
inactive

Lookup WYNNYFRQVPSCVKDGRSHP
inactive

Quick one: FEWLMGRHLYISLRLHMRRS
inactive

Similarly, YSGGCGWIMSRNSVRYSCIC ?
inactive

Same lookup for SVGCPVVRTQFILSPGQTSN , please.
inactive

How about this substance: MYIVRRKTICET
inactive

Would you kindly repeat that for NKTDCETC ?
inactive

###

# EXPERIMENT NOTES: amyloid nucleation score (Sup35N fusion, yeast selection) (log enrichment); library NNK2; higher = more nucleation; inactive = no reads after selection
REPORTED METRIC: amyloid nucleation score

[[record]]
construct_sequence = "LSPIVVPLYKQLDIFGVRRN"
reported_metric = "amyloid nucleation score"
recorded_measurement = "inactive"

[[record]]
construct_sequence = "HYMSAHGRRRLKPQVFYT"
reported_metric = "amyloid nucleation score"
recorded_measurement = "inactive"

[[record]]
construct_sequence = "THLSWQKMWFLIVHALKICL"
reported_metric = "amyloid nucleation score"
recorded_measurement = "inactive"


###

We begin with a simple list: items and their reported amyloid nucleation score.
# EXPERIMENT NOTES: amyloid nucleation score (Sup35N fusion, yeast selection) (log enrichment); library NNK2; higher = more nucleation; inactive = no reads after selection
Please reply with the value in numeric form only.

[[record]]
substance = "TVFVWKPRVGKN"
reported_metric = "amyloid nucleation score"
recorded_measurement = 4.72

[[record]]
substance = "LYKSSIA"
reported_metric = "amyloid nucleation score"
recorded_measurement = -2.08

[[record]]
substance = "FESRFYHSVLTIVTLFTYPA"
reported_metric = "amyloid nucleation score"
recorded_measurement = -0.025

[[record]]
substance = "AVFSRYCLIYVIMLDHDTDP"
reported_metric = "amyloid nucleation score"
recorded_measurement = 5.03


Could you now look at the following substance, please?
Please give the measured amyloid nucleation score for this substance: MTNSLCSTCIMFYSMCMNST
7.79

###

# EXPERIMENT NOTES: amyloid nucleation score (Sup35N fusion, yeast selection) (log enrichment); library NNK3; higher = more nucleation; inactive = no reads after selection
REPORTED METRIC: amyloid nucleation score

Here is how some substances turned out for amyloid nucleation score.
[[record]]
substance = "TGVVMCLGIEMINDYIPVLN"
recorded_measurement = "inactive"

[[record]]
substance = "FGRSVDFMVIHFCTTY"
recorded_measurement = "inactive"

[[record]]
substance = "TIWSITFLGCKLELTEKCLV"
recorded_measurement = 0.979

[[record]]
substance = "VDIGYQMQGFLGICSDY"
recorded_measurement = "inactive"

[[record]]
substance = "LLGSSFFIRLFWTSSSFAAK"
recorded_measurement = "inactive"

[[record]]
substance = "FQVEKQF"
recorded_measurement = "inactive"

[[record]]
substance = "YSWYEDPWWGERFWP"
recorded_measurement = "inactive"

[[record]]
substance = "ICSLCEHSFVRVNGMYWHRE"
recorded_measurement = 2.02

[[record]]
substance = "TIFMWCV"
recorded_measurement = 1.64

[[record]]
substance = "NITFISSWIMQEYTFVLCSF"
recorded_measurement = 1.96


Fill blank: measured amyloid nucleation score of the substance STLRSLCRPSGFGVAI is ____.
inactive

Also MVVVPDQLRVTGMRSGGKSG , if possible.
inactive

Same lookup for VGGFFTSYKNYTK , please.
0.671

// repeat for TISGLNM and report
inactive

Now consider HDDSTSNNSPVSRKPLSPWS .
inactive

Please answer likewise for SSYLLRLLIFTSSIRRMFGS
inactive

Entry to check: SYFVWVNV
inactive

HMQTGDDRLMQAAYMHLEHI , same question.
inactive

Then VEHDNKGISQAAVMFG ?
inactive

And for GLRVTH ?
inactive

###

# EXPERIMENT NOTES: amyloid nucleation score (Sup35N fusion, yeast selection) (log enrichment); library NNK2; higher = more nucleation; inactive = no reads after selection
Classify as follows. Reported amyloid nucleation score greater than or equal to 1: yes (1). Reported amyloid nucleation score below: no (0).

Example entries and their recorded answers appear below.
[[record]]
substance = "YRQMIRDYWIEKQSLHIRAD"
class_label = "no (0)"

[[record]]
substance = "LTVLCPANLSYRIVYVLLYK"
class_label = "no (0)"

[[record]]
substance = "RISDDWVYLLCSCKGQGFLW"
class_label = "no (0)"

[[record]]
substance = "WKQLSSWIAIDSLRARKTLS"
class_label = "no (0)"

[[record]]
substance = "FVCLVLRLCTMGSRASGLKK"
class_label = "no (0)"

[[record]]
substance = "TVNCLGIFSRFLCLNWASWL"
class_label = "yes (1)"


Given LILMAENL , state whether its amyloid nucleation score is at least 1.
no (0)

Same for QVKMSSYFVLFFAGPPHVSI
no (0)

Lookup GSPGIETGIAAEEWNGGW
no (0)

Request: EYGVAT
yes (1)

Do the same for HVNRGYSLVTPRMEVDWQLS please
yes (1)

Now consider NWLSMWLWFVCMSLVCMVFR and answer again.
yes (1)

Record: MISYYLMSIYS
yes (1)

Now consider YRLYHILECSGVMMS .
no (0)

For NMCQPMCVIVDWIIFISCVG then?
yes (1)

Another: STNYQLSLFR
yes (1)

Next record, please: FYIMFLVRCYKDEPSTRANL
no (0)

###

# EXPERIMENT NOTES: amyloid nucleation score (Sup35N fusion, yeast selection) (log enrichment); library NNK1; higher = more nucleation; inactive = no reads after selection
REPORTED METRIC: amyloid nucleation score
// return a plain number; no unit text

Sample answers from the record:
[[record]]
substance = "RNSDSNTVGNRSFWLLGIL"
reported_metric = "amyloid nucleation score"
recorded_measurement = 0.389

[[record]]
substance = "FVEVMLIVNFTGLGVV"
reported_metric = "amyloid nucleation score"
recorded_measurement = 0.576

[[record]]
substance = "IWSGATV"
reported_metric = "amyloid nucleation score"
recorded_measurement = 0.445


Now consider the entry below.
Quick one: amyloid nucleation score of NHCCRVFMCFRIRGMYNAET ?
4.05

###

# EXPERIMENT NOTES: amyloid nucleation score (Sup35N fusion, yeast selection) (log enrichment); library NNK2; higher = more nucleation; inactive = no reads after selection
REPORTED METRIC: amyloid nucleation score
Write no unit; give the number alone.

[[record]]
substance = "SGPATLLPTLGYNGVIVFGN"
recorded_measurement = -0.444


Need amyloid nucleation score of NFMCVSYQAAANSILRVPQS , thanks.
1.28

Also check SLARYAGGFRARSGKIFSVC
0.802

Try this substance next: VCFVWDKARAMCSFYFV
-0.596

Entry to check: LSSEVISSSHALQKTSICRF
2.72

Another substance: FRYLDRSNYRKSCGYIITLT
-0.74

###

Each entry below lists one item and its recorded amyloid nucleation score value.
# EXPERIMENT NOTES: amyloid nucleation score (Sup35N fusion, yeast selection) (log enrichment); library NNK1; higher = more nucleation; inactive = no reads after selection
The answer should be written as a number, with no unit following it.

[[record]]
substance = "SVCTGRYPSRAHGEGASNTC"
recorded_measurement = 0.08

[[record]]
substance = "VVVFSTF"
recorded_measurement = -0.376

[[record]]
substance = "SGSSTVWCAYRMTGQPPGRT"
recorded_measurement = 1.37


What does the record list as amyloid nucleation score for QGHCGTYHSGGSVNRLPHGV ?
0.209

Here is the next substance: GSHTGEFRYVF
-0.83

Note, next up: LFPRVMN
0.338

And RGAASKDLLMV ?
0.082

Please give the result for SVINIGRNMISI too.
-0.353

Again, but for PTWSWWGSWHLGSMPGDNRR
0.237

Likewise for TFGNLRMDVRAPTRFKDLLK ?
1.27

Would you kindly repeat that for NIIIVNSSVG ?
1.49
